- target desc: CXCL12 (Homo sapiens)
- assay protocol: 2D 1H-15N HSQC NMR titration, fragment binding to CXCL12
- condition context: ligand efficiency: free energy of binding divided by number of non-hydrogen atoms (kcal/mol/non-hydrogen atom)
quantity name: LE

1. O=C(Nc1ccc(-c2nnn[nH]2)cc1)c1ccccc1 [Compound 15, N-(4-(1H-tetrazol-5-yl)phenyl)benzamide]; 0.29
2. O=C(Nc1ccccc1)Nc1cccc(-c2nnn[nH]2)c1; 0.25
3. O=C(Nc1ccccc1-c1nnn[nH]1)c1ccccc1 [Compound 11, N-(2-(1H-Tetrazol-5-yl)phenyl)benzamide]; 0.33
4. O=C(Nc1ccccc1)Nc1ccc(-c2nnn[nH]2)cc1; 0.30
5. O=C(Nc1ccccc1)Nc1ccccc1-c1nnn[nH]1; 0.23
6. O=C(Nc1cccc(-c2nnn[nH]2)c1)c1ccccc1 [Compound 13, N-(3-(1H-tetrazol-5-yl)phenyl)benzamide]; 0.29

====

pKd: −log10 of the molar value.
Parameter pKd, tested on CXCL12 (Homo sapiens, UniProt P48061), listed per item.
quantity name: pKd

1. O=C(Nc1ccc(-c2nnn[nH]2)cc1)c1ccccc1 [Compound 15, N-(4-(1H-tetrazol-5-yl)phenyl)benzamide]; 4.19
2. O=C(Nc1ccccc1)Nc1ccc(-c2nnn[nH]2)cc1; 4.62
3. O=C(Nc1ccccc1)Nc1ccccc1-c1nnn[nH]1; 3.49
4. O=C(Nc1cccc(-c2nnn[nH]2)c1)c1ccccc1 [Compound 13, N-(3-(1H-tetrazol-5-yl)phenyl)benzamide]; 4.30
5. O=C(Nc1ccccc1)Nc1cccc(-c2nnn[nH]2)c1; 3.90
6. O=C(Nc1ccccc1-c1nnn[nH]1)c1ccccc1 [Compound 11, N-(2-(1H-Tetrazol-5-yl)phenyl)benzamide]; 4.89

====

- Tested on: CXCL12-induced chemotaxis of THP-1 monocytes
- assay protocol: in vitro chemotaxis assay, THP-1 monocytes with CXCL12
- Assay type: cell-based
- condition context: read-out: IC50 of chemotaxis to CXCL12, 10 nM CXCL12
quantity name: IC50 (µM)

1) O=C(Nc1ccc(-c2nn[nH]n2)cc1)Nc1cccc2ccccc12; 111
